Reference source for all entries: ChEMBL document CHEMBL4184306

System: A2780 (human)
Test: Selectivity index, ratio of IC50 for SV-40 immortalized human ovarian epithelial cells to IC50 for human A2780 cells
selectivity ratio under 4 gets Satisfied, anything at or over 4 gets Not satisfied.

These solved cases illustrate the format of a correct answer.
[[record]]
substance_smiles = "CC1=C(Cl)C(=O)C(C(C)(C)C)=C(Cl)C1=O"
category_label = "Satisfied"

[[record]]
substance_smiles = "CC1=CC(=O)C(Nc2ccc(F)cc2)=CC1=O"
category_label = "Satisfied"


Request: Identify whether the compound "CC(C)(C)C1=CC(=O)C=CC1=O" records selectivity ratio below 4.
Result: Satisfied

Request: Say whether its selectivity ratio is strictly beneath 4. Entry: "CC1=C(N)C(=O)C(C(C)C)=CC1=O"
Result: Not satisfied

Request: Lab log: compare recorded selectivity ratio with 4; is it strictly lower for "CC(C)(C)CC(C)(C)C1=CC(=O)C(C(C)(C)CC(C)(C)C)=CC1=O" ?
Result: Not satisfied

Request: Would you kindly verify if selectivity ratio of "Cc1c(O)c(Br)c(C(C)C)c(O)c1Br" is strictly less than 4?
Result: Satisfied

Request: Check if selectivity ratio falls below 4 for "Cc1cc(O)c(C(C)(C)C)cc1O" .
Result: Not satisfied

Request: Lab note: selectivity ratio threshold 4. Does this compound come in strictly under it? "CC1=CC(=O)C(N(C)C)=CC1=O"
Result: Satisfied
